Test: Drug-drug interaction study in humans (Phase-1, open-label, two-group, fixed-sequence, PK)
Settings: DDI study, co-administration of Odalasvir
ASSAY_READOUT: increase of exposure caused by Odalasvir (×)
Numeric only. Scale: ×

Please look up its increase of exposure caused by Odalasvir: C[C@H](NP(=O)(O)OC[C@@]1(F)O[C@@H](n2ccc(=O)[nH]c2=O)[C@](C)(O)[C@@H]1O)C(=O)O [Compound A-3]
2.6

Which increase of exposure caused by Odalasvir reading was recorded for the molecule COc1ccc2c(O[C@@H]3C[C@H]4C(=O)N[C@]5(C(=O)NS(=O)(=O)C6CC6)C[C@H]5/C=C\CCCCN(C)C(=O)[C@@H]4C3)cc(-c3nc(C(C)C)cs3)nc2c1C [SMV, Simeprevir, reference compound] ?
1.6

Consider the molecule shown here: C[C@]1(O)[C@H](n2ccc(=O)[nH]c2=O)O[C@](F)(CO)[C@H]1O [Compound A-1] What is its recorded increase of exposure caused by Odalasvir?
1.5

Please report the recorded increase of exposure caused by Odalasvir for CC(C)OC(=O)[C@H](C)N[P@](=O)(OC[C@@]1(F)O[C@@H](n2ccc(=O)[nH]c2=O)[C@](C)(O)[C@@H]1O)Oc1ccccc1 [Compound (III)] .
4
